Recorded log10(half-life) for the following compounds
Experiment: Microsome Stability (15 min), nude mouse
Format: in vitro ADME
Details: nude, mouse, microsomes, value after the slash in Table VIc, read-out: Microsome Stability (15 min) T ½ nude mouse, second value of cell
Each number you see is log10 of half-life, and the unit inside the log is min.

Would you please look over these solved cases?
{"columns": ["compound structure", "test result"],
 "data": [
  ["COc1ccc2c(c1)c(/C=C1\\Oc3cc(O)cc(O)c3C1=O)c(C)n2CCN1CCN(C)CC1", 1.40],
  ["Cn1cc(/C=C2\\Oc3cc(O)cc(O)c3C2=O)c2c(-c3ccccc3)ccnc21", 0.30],
  ["COc1ccc2c(c1)c(/C=C1\\Oc3cc(O)ccc3C1=O)c(C)n2CCN1CCN(C)CC1", 1.30]
]}

log10(half-life) recorded for this compound, COc1ccc2[nH]c(-c3ccccc3)c(C=C3Oc4cc(O)cc(O)c4C3=O)c2c1 , is 0.70

Entry under test: COc1ccc2[nH]c(-c3ccccc3)c(/C=C3\Oc4cc(O)ccc4C3=O)c2c1 . Its log10(half-life) was 0.60
